# TESTED_TARGET: T1, recombinant human LRRC33-proTGFβ1 complex (Homo sapiens, UniProt P01137)
# T1 construct: made in house
# T1 sequence (P01137 30-390): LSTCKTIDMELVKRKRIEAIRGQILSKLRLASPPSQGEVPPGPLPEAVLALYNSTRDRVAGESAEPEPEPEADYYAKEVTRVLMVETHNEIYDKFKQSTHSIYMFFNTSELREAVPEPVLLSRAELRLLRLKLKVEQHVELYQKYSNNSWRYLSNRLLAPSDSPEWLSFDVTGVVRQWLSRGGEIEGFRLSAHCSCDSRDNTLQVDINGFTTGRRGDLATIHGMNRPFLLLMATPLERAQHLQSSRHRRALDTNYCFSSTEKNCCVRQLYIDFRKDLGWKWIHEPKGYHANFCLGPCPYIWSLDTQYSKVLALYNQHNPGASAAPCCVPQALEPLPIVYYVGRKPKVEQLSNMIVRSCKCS
# T1 sequence (Q86YC3 19-650 partner limits assumed): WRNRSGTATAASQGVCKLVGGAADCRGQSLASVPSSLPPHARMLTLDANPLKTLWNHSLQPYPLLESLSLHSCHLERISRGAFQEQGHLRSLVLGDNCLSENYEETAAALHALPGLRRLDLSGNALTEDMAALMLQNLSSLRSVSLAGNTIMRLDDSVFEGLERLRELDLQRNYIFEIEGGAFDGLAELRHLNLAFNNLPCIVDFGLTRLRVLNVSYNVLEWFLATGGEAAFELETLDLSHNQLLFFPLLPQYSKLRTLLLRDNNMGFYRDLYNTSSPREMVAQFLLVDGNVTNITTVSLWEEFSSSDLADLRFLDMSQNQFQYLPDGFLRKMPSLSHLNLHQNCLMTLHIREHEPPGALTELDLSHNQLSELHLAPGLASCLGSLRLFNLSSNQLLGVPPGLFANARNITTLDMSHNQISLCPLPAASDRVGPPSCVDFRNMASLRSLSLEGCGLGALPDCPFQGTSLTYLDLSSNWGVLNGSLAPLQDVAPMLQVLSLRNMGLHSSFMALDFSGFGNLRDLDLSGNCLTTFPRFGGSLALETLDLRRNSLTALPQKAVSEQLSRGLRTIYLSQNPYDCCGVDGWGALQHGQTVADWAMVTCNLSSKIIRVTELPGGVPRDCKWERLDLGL
# MEASUREMENT_NOTES: Octet (Biolayer Interferometry) in vitro kinetic binding
# CONDITION_CONTEXT: in M
# Experimental: Biolayer Interferometry (BLI):BLI is a label-free technology for optically measuring biomolecular interactions, e.g., between a ligand immobilized on the biosensor tip surface and an analyte in solution. […] BLI-based binding assays are widely used in the art for measuring affinities and kinetics of antibodies to antigens. It is a label-free technology in which biomolecular interactions are analyzed on the basis of optical interference. […]
Provide the reported (F) hLRRC33, Cell-associated proTGFb1 (KD) of each item.
Lab note: jot the number down without any unit.

Fill in: (F) hLRRC33, Cell-associated proTGFb1 (KD) of Ab26: monoclonal antibody; VH SEQ ID NO: 134, VL SEQ ID NO: 15 (antibody, V domains shown) VH: EVQLVESGGGLVQPGGSLRLSCAASGFTFSSFSMDWVRQAPGKGLEWVSYISPDASTIYYADSVKGRFTISRDNAKNTLYLQMNSLRAEDTAVYYCARGVLDYGDMLDPWGQGTLVTVSS VL: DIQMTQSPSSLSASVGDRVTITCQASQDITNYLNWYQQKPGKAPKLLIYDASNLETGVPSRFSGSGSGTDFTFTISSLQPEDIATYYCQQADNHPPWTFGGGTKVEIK is ___
3.60E−10

Reported (F) hLRRC33, Cell-associated proTGFb1 (KD) for Ab21: monoclonal antibody; VH SEQ ID NO: 129, VL SEQ ID NO: 15 (antibody, V domains shown) VH: EVQLVESGGGLVQPGGSLRLSCAASGFTFSSFSMDWVRQAPGKGLEWVSYISPDASTIYYADSVKGRFTISRDNAKNSLYLQMNSLRAEDTAVYYCARGVLDYGDMLDPWGQGTLVTVSS VL: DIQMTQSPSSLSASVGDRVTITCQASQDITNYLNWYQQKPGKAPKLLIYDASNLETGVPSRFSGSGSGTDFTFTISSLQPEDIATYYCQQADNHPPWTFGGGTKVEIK : what is it?
4.55E−10

What measured (F) hLRRC33, Cell-associated proTGFb1 (KD) goes with Ab11: monoclonal antibody; VH SEQ ID NO: 239, VL SEQ ID NO: 241 (antibody, V domains shown) VH: EVQLLESGGGLVQPGGSLRLSCAASGFTFRNYAMSWVRQAPGKGLEWVSSISGSGGATYYADSVKGRFTISRDNSKNTLYLQMNSLRAEDTAVYYCARVSSGHWDFDYWGQGTLVTVSS VL: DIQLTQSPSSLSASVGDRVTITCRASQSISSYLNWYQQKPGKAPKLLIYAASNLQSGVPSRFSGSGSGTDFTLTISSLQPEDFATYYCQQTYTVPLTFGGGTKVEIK ?
5.55E−10

Given the entry Ab16: monoclonal antibody; VH SEQ ID NO: 247, VL SEQ ID NO: 241 (antibody, V domains shown) VH: EVQLLESGGGLVQPGGSLRLSCAASGFTFSNYAMSWVRQAPGKGLEWVSAISGSGFTTYYADSVKGRFTISRDNSKNTLYLQMNSLRAEDTAVYYCARVSSGHWDFDYWGQGTLVTVSS VL: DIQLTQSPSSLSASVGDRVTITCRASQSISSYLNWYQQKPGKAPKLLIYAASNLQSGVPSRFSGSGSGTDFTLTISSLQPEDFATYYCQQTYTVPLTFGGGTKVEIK , report its measured (F) hLRRC33, Cell-associated proTGFb1 (KD).
6.31E−10

May I ask what (F) hLRRC33, Cell-associated proTGFb1 (KD) has been recorded for Ab33: monoclonal antibody; VH SEQ ID NO: 141, VL SEQ ID NO: 15 (antibody, V domains shown) VH: EVQLVESGGGLVQPGGSLRLSCAASGFTFSSFSMNWVRQAPGKGLEWVSYISPSADTIYYADSVKGRFTISRDNAKNTLYLQMNSLRAEDTAVYYCAHGVLDYGDMLDPWGQGTLVTVSS VL: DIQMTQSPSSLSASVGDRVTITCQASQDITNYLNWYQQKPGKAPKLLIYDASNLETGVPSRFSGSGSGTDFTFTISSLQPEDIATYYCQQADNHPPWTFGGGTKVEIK ?
3.39E−10

Request the reported (F) hLRRC33, Cell-associated proTGFb1 (KD) associated with Ab25: monoclonal antibody; VH SEQ ID NO: 133, VL SEQ ID NO: 15 (antibody, V domains shown) VH: EVQLVESGGGLVQPGGSLRLSCAASGFTFGSFSMDWVRQAPGKGLEWVSYISPDASTIYYADSVKGRFTISRDNAKNSLYLQMNSLRAEDTAVYYCARGVLDYGDMLDPWGQGTLVTVSS VL: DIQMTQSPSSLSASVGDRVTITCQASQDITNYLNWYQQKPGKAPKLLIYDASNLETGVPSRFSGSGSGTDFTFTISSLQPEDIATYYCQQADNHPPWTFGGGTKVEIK
4.09E−10
